Tested On: T1, IL-11 (Cat. 12225-HNCE, Sino Biological Inc.) (UniProt P20809 22-199, limits assumed)
T1 sequence (looked up): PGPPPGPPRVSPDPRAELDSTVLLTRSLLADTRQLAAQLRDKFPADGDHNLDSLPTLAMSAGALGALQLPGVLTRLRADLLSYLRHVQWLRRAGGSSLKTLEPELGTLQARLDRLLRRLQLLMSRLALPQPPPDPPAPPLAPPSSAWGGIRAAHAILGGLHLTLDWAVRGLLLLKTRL
Protocol Text: cell-based or functional assay
Measurement Type: Blocking activity (IC50), STAT3-luc reporter

# Binder, Result
rows = [
    ("hz18A10-VHm5 + hz18A10-VLm9 (antibody, V domains shown, Constant regions not restated for this antibody) VH: EVQLVQSGAEVKKPGASVKVSCKASGYTFITYNMDWVRQAPGQGLEWMGTIYPGNGDTSYNQKFKGRVTMTRDTSTSTAYMELSSLRSEDTAVYYCARADLHFLDYWGQGTLVTVSS VL: DIQMTQSPSSLSASVGDRVTITCKASQSVYSDVAWYQQKPGKAPKLLIYSASNRYTGVPSRFSGSGSGTDFTFTISSLQPEDIATYYCQHDYSSPYTFGQGTKLEIK", "11.6 µg/mL"),
    ("hz8C8-VHm1 + hz8C8-VL (antibody, human IgG1, kappa, V domains shown, human IgG1 constant regions) VH: EVQLVESGGGLVQPGGSLRLSCAASGFTFSSFGMHWVRQAPGKGLEWVAYITPGSNTIYYADTVKGRFTISRDNAKNSLYLQMNSLRAEDTAVYYCAREYYSYDEGFAYWGQGTLVTVSS VL: EIVLTQSPATLSLSPGERATLSCSVSSSISSNYLHWYQQKPGQAPRLLIYRTSNLASGIPARFSGSGSGTDFTLTISSLEPEDFAVYYCQQGVDVPFTFGQGTKLEIKR", "2.13 µg/mL"),
]

So what's the measured Blocking activity (IC50), STAT3-luc reporter for this one? hz18A10-VHm17 + hz18A10-VLm19 (antibody, V domains shown, Constant regions not restated for this antibody) VH: EVQLVQSGAEVKKPGASVKVSCKASGYTFTHYDMDWVRQAPGQGLEWMGTIYPGEGDTSYNQKFKGRVTMTRDTSTSTVYMELSSLRSEDTAVYYCARGDLYALDYWGQGTLVTVSS VL: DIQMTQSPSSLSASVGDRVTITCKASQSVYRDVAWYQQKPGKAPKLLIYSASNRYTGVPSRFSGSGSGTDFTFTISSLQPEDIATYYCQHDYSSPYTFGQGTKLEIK
0.013 µg/mL
